# TEST DESCRIPTION: Quantitative High-Throughput drug screen in 47 multiple myeloma cell lines against the NCATS MIPE library collection: JJN3_DSMZ cell viability assay (AID 1918966; also: nearly all actives have a fitted effect of over 50% in size)
# CONDITION INFO: JJN3 myeloma cells viability, CellTiter-Glo ATP, 48 h; series mostly up to 45.8 µM
Results filed as inconclusive are left out. Activity calls are given as the source filed them. Calls follow the shape of the dose curve; as a rule, active = well fitted cell-killing curve with a large enough effect; inconclusive = small, poorly fitted or top-dose-only effect, or effect the other way; inactive = no such curve, though single readings can be large or run the other way.
Possible outcomes: label 1 = active, label 0 = inactive

[[record]]
molecule = "Nc1nc(NCCNc2ncc(-n3ccnc3)c(-c3ccc(Cl)cc3Cl)n2)ccc1[N+](=O)[O-]"
label = "label 1"

[[record]]
molecule = "COc1cc(=C2C=c3ccccc3=N2)[nH]c1=Cc1[nH]c(C)cc1C"
label = "label 1"

[[record]]
molecule = "Cc1cn(-c2cc(NC(=O)c3ccc(C)c(Nc4nccc(-c5cccnc5)n4)c3)cc(C(F)(F)F)c2)cn1"
label = "label 1"

[[record]]
molecule = "Cc1cc(Nc2cc(CN3CCOCC3)c3nc(C)c(Cc4ccc(Cl)cc4F)n3n2)n[nH]1"
label = "label 1"

[[record]]
molecule = "CC1(C)OC2=C(C(=O)c3ccccc3C2=O)[C@H](NCc2ccccc2)[C@H]1O"
label = "label 1"

[[record]]
molecule = "COc1ccc(-c2cc3c(C)nc(N)nc3n(C3CCC(OCCO)CC3)c2=O)cn1 (centres undefined)"
label = "label 1"

[[record]]
molecule = "Cc1[nH]c2ccccc2c1CCNCc1ccc(C=CC(=O)NO)cc1"
label = "label 1"

[[record]]
molecule = "COc1cc2c(cc1-c1c(C)noc1C)ncc1[nH]c(=O)n([C@H](C)c3ccccn3)c12"
label = "label 1"

[[record]]
molecule = "CC[C@@H]1C(=O)N(C)c2cnc(Nc3ccc(C(=O)NC4CCN(C)CC4)cc3OC)nc2N1C1CCCC1"
label = "label 1"

[[record]]
molecule = "COc1c(OCCCN2CCOCC2)ccc2c3n(c(=NC(=O)c4cnc(N)nc4)nc12)CCN3"
label = "label 1"

[[record]]
molecule = "CN1CCN(Cc2ccc(NC(=O)Nc3ccc(Oc4cc(NC(=O)C5CC5)ncn4)cc3)cc2C(F)(F)F)CC1"
label = "label 1"

[[record]]
molecule = "O=C(O)c1ccc2c(c1)nc(Nc1cccc(Cl)c1)c1ccncc12"
label = "label 1"

[[record]]
molecule = "CCCCc1nc2cc(C=CC(=O)NO)ccc2n1CCN(CC)CC"
label = "label 1"

[[record]]
molecule = "Nc1nc(Nc2ccc(S(N)(=O)=O)cc2)nn1C(=O)c1c(F)cccc1F"
label = "label 1"

[[record]]
molecule = "Cc1cc(CN2CCN(c3c(Br)cnc4nc(-c5ccc(N6CCN(C)CC6)cc5)[nH]c34)CC2)no1"
label = "label 1"

[[record]]
molecule = "O=c1[nH]c(=O)n(C2CCCO2)cc1F (centres undefined)"
label = "label 0"

[[record]]
molecule = "O=C(Nc1nc2cccc(-c3ccc(CN4CCS(=O)(=O)CC4)cc3)n2n1)C1CC1"
label = "label 1"

[[record]]
molecule = "CCOC(=O)C1=C(C)NC2=C(C(=O)CC(C)(C)C2)C1c1ccc(-c2ccccc2)cc1 (centres undefined)"
label = "label 1"

[[record]]
molecule = "CCn1cc(-c2ccnc3[nH]c(-c4cccc(CN(C)C)c4)cc23)c(-c2ccc(NC(=O)N(C)C)cc2)n1"
label = "label 1"

